ASSAY SYSTEM: AP2 α-appendage (Mus musculus)
Construct: GST-tagged Cμ2 and α-appendage proteins were made as in ([51]); GST (cleaved yes); made in house; host or cells: Escherichia coli BL21 plyS
Sequence (P17427 701-938 limits assumed): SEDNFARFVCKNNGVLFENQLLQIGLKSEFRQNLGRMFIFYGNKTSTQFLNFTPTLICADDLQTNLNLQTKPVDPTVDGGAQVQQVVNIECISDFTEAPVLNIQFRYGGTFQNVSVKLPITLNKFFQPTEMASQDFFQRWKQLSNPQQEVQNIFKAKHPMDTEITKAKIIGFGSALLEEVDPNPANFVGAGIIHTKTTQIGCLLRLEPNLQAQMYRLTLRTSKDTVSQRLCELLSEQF
MEASUREMENT PROTOCOL: Isothermal titration calorimetry with α-appendage
Format: binding
CONDITION DESCRIPTION: ITC, 100 mM tris pH 7.4, 150 mM NaCl, 0.25 mM TCEP, 12°C; mean ± SEM, minimum three independent runs; read-out: KD of C block peptide binding to α-appendage
Where no end group is shown, it is not given here.
METRIC NAME: Kd

Lab note: need Kd with AP2 α-appendage (Mus musculus) for entry SDLLAWDPLFG [FCHO2 C peptide] , please look it up.
100 to 200 µM
